# Test system: UACC-62 melanoma
# PROCEDURE_TEXT: NCI-60 one-dose screen, 48 h
# PROTOCOL_CONDITIONS: 10 µM unless noted
The panel holds about 83,000 compounds, 20% with a hit somewhere; the sample as a whole holds those more often. Activity calls are given as the source filed them. The calls were made as follows: active = growth percent below 10; inactive = the rest.
Write down one outcome, taken from active, inactive

C=C1C(=O)O[C@H]2[C@H]1CC/C(COC(=O)C(=O)c1cn(C)c3ccc(Cl)cc13)=C\CC[C@@]1(C)O[C@@H]21	active
CC1(C)COB(OCC(C)(C)COB2OCC(C)(C)CO2)OC1	inactive
C=C1C(=O)O[C@H]2[C@H]1CC/C(Cn1cc(-c3ccccc3)nn1)=C\CC[C@@]1(C)O[C@@H]21	active
CC1OC(n2c3ccccc3c3c4c(c5c6ccccc6[nH]c5c32)C(=O)N(CCN2CCCC2)C4=O)CC(O)C1O (centres undefined)	inactive
CCN(CC)CCn1c2ccc(O)cc2c2sc3cc(O)ccc3c(=O)c21	inactive

Problem: Could you please tell me the result logged for `COc1cc(-c2nc3sccn3c2-c2ccnc(NCCNS(=O)(=O)c3ccccc3)n2)ccc1F` in this assay?
Result: inactive

Problem: Could you please tell me the result logged for `O=C1C(Cl)=C(NCCCCCCNC2=C(Cl)C(=O)c3ccccc3C2=O)C(=O)c2ccccc21` in this assay?
Result: inactive

Problem: Could you please tell me the result logged for `CCNCCNc1cc(-c2ccc(C(F)(F)F)cc2)c(C#N)c2nc3ccccc3n12` in this assay?
Result: active

Problem: Could you please tell me the result logged for `COc1ccc(C/C(C)=C(/c2ccc(OCCN(C)C)cc2)c2ccc(OC(=O)NCc3ccccc3)cc2)cc1` in this assay?
Result: inactive
